The reported measurements were obtained from patent US9981972B2.

- Measured on: LYPLA2 (Mus musculus, UniProt Q9WTL7)
- Construct: a complex proteome endogenously expressing LYPLA1/2 was incubated with test compound; from tissue; host or cells: mouse brain, membrane fraction
- Sequence (Q9WTL7 whole entry): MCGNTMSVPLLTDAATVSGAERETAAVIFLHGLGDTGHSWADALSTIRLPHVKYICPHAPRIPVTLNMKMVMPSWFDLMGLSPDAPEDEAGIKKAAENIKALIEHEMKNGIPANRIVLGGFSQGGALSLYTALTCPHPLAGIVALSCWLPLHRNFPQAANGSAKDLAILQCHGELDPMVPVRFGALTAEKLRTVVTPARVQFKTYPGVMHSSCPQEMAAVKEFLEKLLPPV
- Assay overview: Gel-based competitive ABPP in vitro, mouse brain membrane proteome
- Type: biochemical
- Conditions used: 10 μM compound, 30 min, one replicate; read-out: LYPLA2 % INH 10 μM
Reported property: inhibition at 10 µM
For clarity, give the value followed by its unit.

Consider the following illustrative entries.
[
  {
    "Molecule": "COC(=O)C1CCN(C(=O)ON2C(=O)C3CN(C(=O)OC(C)(C)C)CCN3C2=O)CC1 (stereo not shown)",
    "inhibition at 10 µM": "0%"
  },
  {
    "Molecule": "Cc1ccc(C(=O)N2CCN3C(=O)N(OC(=O)N4CCC(CCc5ccc(Cl)cc5)CC4)C(=O)C3C2)cc1 (stereo not shown)",
    "inhibition at 10 µM": "100%"
  },
  {
    "Molecule": "CC(C)(C)OC(=O)N1CCN2C(=O)N(OC(=O)N3CCOCC3Cc3ccccc3)C(=O)C2C1 (stereo not shown)",
    "inhibition at 10 µM": "0%"
  },
  {
    "Molecule": "CCN(C(=O)C1CCN(C(=O)ON2C(=O)C3CN(C(=O)OC(C)(C)C)CCN3C2=O)CC1)c1ccccc1 (stereo not shown)",
    "inhibition at 10 µM": "75%"
  },
  {
    "Molecule": "O=C(Cc1ccccc1)N1CCN2C(=O)N(OC(=O)N3CCC(CCc4ccc(Cl)cc4)CC3)C(=O)C2C1 (stereo not shown)",
    "inhibition at 10 µM": "100%"
  }
]

Exercise: Quick check: inhibition at 10 µM of CC(C)(C)OC(=O)N1CCN2C(=O)N(OC(=O)N3CCN(C(c4ccc(Cl)cc4)c4ccc(Cl)cc4)CC3)C(=O)C2C1 (stereo not shown) ?
Key: 50%

Exercise: Quick check: inhibition at 10 µM of O=C(ON1C(=O)C2CN(Cc3ccc(Br)cc3)CCN2C1=O)N1CCC(CCc2ccc(Cl)cc2)CC1 (stereo not shown) ?
Key: 75%

Exercise: Quick check: inhibition at 10 µM of O=C(ON1C(=O)C2CN(C(=O)N3CCOCC3)CCN2C1=O)N1CCC(CCc2ccc(Cl)cc2)CC1 (stereo not shown) ?
Key: 100%
